Entry source: patent US20180084779A1

# Tested on: Septoria tritici, KUK-1-21 Strain
# Measurement protocol: Test for wheat leaf blotch, fluoroimide and/or SDHI agent sprayed on wheat pots, lesion area index 21 days after inoculation
# Format: in vivo
# Details: SDHI agent 1 ppm + fluoroimide 50 ppm; 21 days
Measure: Control effect Combination with fluoroimide

# Molecule, Measured
data = [
    ("CC(C)C1C2CCC1c1c(NC(=O)c3cn(C)nc3C(F)F)cccc12 (stereo not shown)", "60%"),
    ("O=C(Nc1ccccc1-c1ccc(Cl)cc1)c1cccnc1Cl", "15%"),
    ("Cn1cc(C(=O)Nc2ccccc2-c2cc(F)c(F)c(F)c2)c(C(F)F)n1", "15%"),
    ("Cn1cc(C(=O)Nc2ccc(F)cc2-c2ccc(Cl)c(Cl)c2)c(C(F)F)n1", "95%"),
]
